- study.system: mouse ADAMTS7 (Mus musculus, UniProt Q68SA9)
- Construct: Full-length mouse Adamts7 1-1857 (Uniprot Q68SA9, WT or E373Q catalytic mutant); expressed in transfected cells; host or cells: Human Coronary Artery Smooth Muscle Cells (HCA-SMC, Lonza), adenovirus 50 MOI
- Sequence (Q68SA9 221-1657): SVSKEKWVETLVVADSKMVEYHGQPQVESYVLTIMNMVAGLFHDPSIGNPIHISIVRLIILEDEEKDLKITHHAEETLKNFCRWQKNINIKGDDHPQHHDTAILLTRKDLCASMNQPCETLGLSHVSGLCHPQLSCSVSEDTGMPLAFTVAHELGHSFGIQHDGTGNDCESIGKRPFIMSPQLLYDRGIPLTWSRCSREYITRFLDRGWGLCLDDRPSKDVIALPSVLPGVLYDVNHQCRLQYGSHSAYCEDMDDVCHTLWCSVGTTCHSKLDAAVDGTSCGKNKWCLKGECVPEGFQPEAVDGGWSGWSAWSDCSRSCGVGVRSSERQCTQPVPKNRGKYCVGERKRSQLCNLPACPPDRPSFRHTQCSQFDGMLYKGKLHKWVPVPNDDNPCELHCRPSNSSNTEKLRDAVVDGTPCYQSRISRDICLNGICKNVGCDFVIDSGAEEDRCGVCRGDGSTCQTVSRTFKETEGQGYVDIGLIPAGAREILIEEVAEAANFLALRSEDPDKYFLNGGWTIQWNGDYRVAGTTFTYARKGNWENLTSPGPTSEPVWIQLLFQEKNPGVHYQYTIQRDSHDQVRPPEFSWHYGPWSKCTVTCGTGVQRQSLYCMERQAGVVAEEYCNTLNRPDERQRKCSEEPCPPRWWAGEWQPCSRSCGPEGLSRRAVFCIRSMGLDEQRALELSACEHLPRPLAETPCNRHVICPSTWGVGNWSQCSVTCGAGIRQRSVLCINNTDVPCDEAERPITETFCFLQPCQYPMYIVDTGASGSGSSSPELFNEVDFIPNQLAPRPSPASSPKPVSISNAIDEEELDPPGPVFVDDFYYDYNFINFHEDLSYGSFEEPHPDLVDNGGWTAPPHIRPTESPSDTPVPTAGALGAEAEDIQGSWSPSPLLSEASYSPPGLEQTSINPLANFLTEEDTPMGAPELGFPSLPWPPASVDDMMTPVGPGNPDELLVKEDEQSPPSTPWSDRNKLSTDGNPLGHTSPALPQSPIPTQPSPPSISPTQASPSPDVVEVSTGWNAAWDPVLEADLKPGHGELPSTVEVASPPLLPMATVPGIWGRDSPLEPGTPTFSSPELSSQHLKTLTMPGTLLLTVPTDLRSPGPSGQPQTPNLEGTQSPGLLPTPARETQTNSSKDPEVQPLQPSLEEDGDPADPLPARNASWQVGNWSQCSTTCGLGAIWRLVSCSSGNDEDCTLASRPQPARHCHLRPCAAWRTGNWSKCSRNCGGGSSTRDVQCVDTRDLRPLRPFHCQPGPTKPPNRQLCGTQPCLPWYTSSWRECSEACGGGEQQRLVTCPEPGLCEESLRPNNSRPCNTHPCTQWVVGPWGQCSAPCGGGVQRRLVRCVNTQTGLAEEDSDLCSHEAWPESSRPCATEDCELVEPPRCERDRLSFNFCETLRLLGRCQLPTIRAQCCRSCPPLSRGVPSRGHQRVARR
- measurement.description: TMT10 TAILS N-terminomics, SMC1 experiment (Ad-mADAMTS7 WT vs EQ vs Luc, technical replicates, trypsin digest)
- Format: cell-based
- measurement.conditions: TAILS neo-N-terminal peptide abundance; log fold change, Ad-mADAMTS7 WT over Luc
Reported logFC.mWT.over.Lux values follow for various substances
recorded.endpoint: logFC.mWT.over.Lux

>  <substance>
FN1_40 (QSPVAVSQSKPGCYDNGKHYQINQQWER; listed as Homo sapiens)

>  <recorded.endpoint>
logFC.mWT.over.Lux

>  <result>
3.87

$$$$
>  <substance>
COL1A2_1037 (HHGDQGAPGSVGPAGPR; listed as Homo sapiens)

>  <recorded.endpoint>
logFC.mWT.over.Lux

>  <result>
2.30

$$$$
>  <substance>
COL5A1_544 (SQAQAILQQAR; listed as Homo sapiens)

>  <recorded.endpoint>
logFC.mWT.over.Lux

>  <result>
0.87

$$$$
>  <substance>
ECM1_43 (YAAPPSPPLSR; listed as Homo sapiens)

>  <recorded.endpoint>
logFC.mWT.over.Lux

>  <result>
0.63

$$$$
>  <substance>
COL1A2_960 (AGAPGPHGPVGPAGKHGNR; listed as Homo sapiens)

>  <recorded.endpoint>
logFC.mWT.over.Lux

>  <result>
2.56

$$$$

---

- study.system: mouse ADAMTS7 (Mus musculus, UniProt Q68SA9, E373Q)
- Construct: Full-length mouse Adamts7 1-1857 (Uniprot Q68SA9, WT or E373Q catalytic mutant); expressed in transfected cells; host or cells: Human Coronary Artery Smooth Muscle Cells (HCA-SMC, Lonza), adenovirus 50 MOI
- Sequence (Q68SA9 221-1657 E373Q): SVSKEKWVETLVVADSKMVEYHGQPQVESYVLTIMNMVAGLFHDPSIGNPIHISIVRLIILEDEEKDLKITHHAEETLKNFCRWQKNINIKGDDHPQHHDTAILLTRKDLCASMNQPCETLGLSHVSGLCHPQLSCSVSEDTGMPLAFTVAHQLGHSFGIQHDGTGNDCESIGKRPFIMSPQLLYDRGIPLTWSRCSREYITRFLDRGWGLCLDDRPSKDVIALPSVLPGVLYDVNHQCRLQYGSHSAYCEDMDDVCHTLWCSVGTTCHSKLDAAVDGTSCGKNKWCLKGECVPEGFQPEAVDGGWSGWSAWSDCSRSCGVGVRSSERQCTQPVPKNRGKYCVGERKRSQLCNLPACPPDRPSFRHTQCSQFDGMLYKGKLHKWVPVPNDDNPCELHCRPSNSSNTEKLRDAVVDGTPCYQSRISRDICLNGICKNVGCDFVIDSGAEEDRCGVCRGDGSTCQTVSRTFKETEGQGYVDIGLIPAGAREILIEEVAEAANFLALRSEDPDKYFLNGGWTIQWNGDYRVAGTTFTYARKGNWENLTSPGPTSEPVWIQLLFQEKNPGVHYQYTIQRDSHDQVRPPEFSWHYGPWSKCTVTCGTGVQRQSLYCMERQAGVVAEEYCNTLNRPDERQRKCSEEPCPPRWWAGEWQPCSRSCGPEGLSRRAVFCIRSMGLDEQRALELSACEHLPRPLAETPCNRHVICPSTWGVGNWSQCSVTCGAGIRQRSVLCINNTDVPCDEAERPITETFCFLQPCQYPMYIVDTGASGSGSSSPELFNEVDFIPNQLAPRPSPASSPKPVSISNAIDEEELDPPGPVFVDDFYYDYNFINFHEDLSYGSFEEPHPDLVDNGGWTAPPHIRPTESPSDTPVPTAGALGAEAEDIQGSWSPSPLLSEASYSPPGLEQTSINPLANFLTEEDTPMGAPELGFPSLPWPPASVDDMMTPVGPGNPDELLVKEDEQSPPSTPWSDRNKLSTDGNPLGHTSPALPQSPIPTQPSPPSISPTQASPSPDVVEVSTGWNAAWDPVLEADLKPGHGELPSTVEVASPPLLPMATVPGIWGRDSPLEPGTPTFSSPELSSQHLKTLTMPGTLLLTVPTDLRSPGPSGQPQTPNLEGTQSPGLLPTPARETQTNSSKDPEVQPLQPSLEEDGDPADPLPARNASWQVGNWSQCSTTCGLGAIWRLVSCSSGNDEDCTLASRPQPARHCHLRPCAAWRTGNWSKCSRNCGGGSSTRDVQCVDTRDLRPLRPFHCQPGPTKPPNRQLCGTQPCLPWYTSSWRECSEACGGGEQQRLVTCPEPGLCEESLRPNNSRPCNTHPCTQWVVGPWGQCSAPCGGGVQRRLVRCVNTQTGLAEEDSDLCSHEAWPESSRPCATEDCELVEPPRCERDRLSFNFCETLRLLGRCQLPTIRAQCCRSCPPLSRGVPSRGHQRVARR
- measurement.description: TMT10 TAILS N-terminomics, SMC2 experiment (process replicates, trypsin/AspN digest)
- Format: cell-based
- measurement.conditions: SMC2_TAILS HC; log fold change, mEQ over Luc

>  <substance>
FN1_1656 (SSSPVTGYR; listed as Homo sapiens)

>  <study.system>
mouse ADAMTS7 (Mus musculus, UniProt Q68SA9, E373Q)

>  <logFC.mEQ.over.Luc>
−0.65

$$$$
>  <substance>
FN1_1805 (LIGTQSTAIPAPT; listed as Homo sapiens)

>  <study.system>
mouse ADAMTS7 (Mus musculus, UniProt Q68SA9, E373Q)

>  <logFC.mEQ.over.Luc>
0.71

$$$$
>  <substance>
LOX_124 (WFQAGYSTSR; listed as Homo sapiens)

>  <study.system>
mouse ADAMTS7 (Mus musculus, UniProt Q68SA9, E373Q)

>  <logFC.mEQ.over.Luc>
−0.11

$$$$
>  <substance>
HSPG2_2331 (ANLAYPAGSTQPIR; listed as Homo sapiens)

>  <study.system>
mouse ADAMTS7 (Mus musculus, UniProt Q68SA9, E373Q)

>  <logFC.mEQ.over.Luc>
−0.19

$$$$
>  <substance>
FN1_1780 (LQGLRPGSEYTVSVVALH; listed as Homo sapiens)

>  <study.system>
mouse ADAMTS7 (Mus musculus, UniProt Q68SA9, E373Q)

>  <logFC.mEQ.over.Luc>
−0.34

$$$$

Values were extracted from patent US20240368668A1.
